- protocol_description: solubility of 5-iodo-2'-deoxycytidine in various vehicles
- Assay type: physicochemical
- condition_set: propylene glycol, organic solvent or mixture; PG, ±SD; read-out: Solubility of 5-IDC
attribute_measured: solubility (mg/mL)
Numeric answer only, unit mg/mL assumed.

[Q] Return reported solubility; argument: `Nc1nc(=O)n([C@H]2C[C@H](O)[C@@H](CO)O2)cc1I`
[A] 19.7

* * *

Property: degraded at 48 h; scope: individual compounds
- protocol_description: stability of the bases in water, isopropyl myristate and moisture (NMR, TLC)
- Format: physicochemical
- condition_set: isopropyl myristate; atmospheric moisture, room temperature, two days; read-out: decomposition of base prodrugs in IPM filtrates

compound | degraded at 48 h
CCN(CC)Cn1cnc2c1c(=O)n(C)c(=O)n2C [III, 7-(Diethylamino)methyltheophylline] | 50 to 80%

Read the next record carefully.
[Q] Consider the compound CN(C)Cn1cnc2c1c(=O)n(C)c(=O)n2C [II] and give its measured degraded at 48 h.
[A] 50 to 80%
